details: in DMF, 318.15 K

| smiles_string | solubility (mole fraction) |
| --- | --- |
| C#C[C@]1(O)CC[C@H]2[C@@H]3CCC4=CC(=O)CC[C@@H]4[C@H]3C(=C)C[C@@]21CC | 0.117 |

====

details: in isopropanol, 313.15 K

| smiles_string | solubility (mole fraction) |
| --- | --- |
| C#C[C@]1(O)CC[C@H]2[C@@H]3CCC4=CC(=O)CC[C@@H]4[C@H]3C(=C)C[C@@]21CC | 0.0156 |

====

conditions: in n-propanol, 288.15 K

| smiles_string | solubility (mole fraction) |
| --- | --- |
| C#C[C@]1(O)CC[C@H]2[C@@H]3CCC4=CC(=O)CC[C@@H]4[C@H]3C(=C)C[C@@]21CC | 0.00677 |

====

details: in DMF, 298.15 K
value_kind: solubility (mole fraction)

| smiles_string | value_kind | endpoint_result |
| --- | --- | --- |
| C#C[C@]1(O)CC[C@H]2[C@@H]3CCC4=CC(=O)CC[C@@H]4[C@H]3C(=C)C[C@@]21CC | solubility (mole fraction) | 0.0975 |

====

conditions: in n-propanol, 293.15 K

| smiles_string | solubility (mole fraction) |
| --- | --- |
| C#C[C@]1(O)CC[C@H]2[C@@H]3CCC4=CC(=O)CC[C@@H]4[C@H]3C(=C)C[C@@]21CC | 0.00783 |

====

settings: in DMF, 303.15 K

| smiles_string | solubility (mole fraction) |
| --- | --- |
| C#C[C@]1(O)CC[C@H]2[C@@H]3CCC4=CC(=O)CC[C@@H]4[C@H]3C(=C)C[C@@]21CC | 0.102 |

====

conditions: in isopropanol, 283.15 K
value_kind: solubility (mole fraction)

| smiles_string | value_kind | endpoint_result |
| --- | --- | --- |
| C#C[C@]1(O)CC[C@H]2[C@@H]3CCC4=CC(=O)CC[C@@H]4[C@H]3C(=C)C[C@@]21CC | solubility (mole fraction) | 0.00697 |

====

conditions: in water, 313.15 K

| smiles_string | solubility (mole fraction) |
| --- | --- |
| C#C[C@]1(O)CC[C@H]2[C@@H]3CCC4=CC(=O)CC[C@@H]4[C@H]3C(=C)C[C@@]21CC | 5.03e-05 |

====

conditions: in isopropanol, 278.15 K
value_kind: solubility (mole fraction)

| smiles_string | value_kind | endpoint_result |
| --- | --- | --- |
| C#C[C@]1(O)CC[C@H]2[C@@H]3CCC4=CC(=O)CC[C@@H]4[C@H]3C(=C)C[C@@]21CC | solubility (mole fraction) | 0.00597 |

====

conditions: in isopropanol, 293.15 K

| smiles_string | solubility (mole fraction) |
| --- | --- |
| C#C[C@]1(O)CC[C@H]2[C@@H]3CCC4=CC(=O)CC[C@@H]4[C@H]3C(=C)C[C@@]21CC | 0.00923 |

====

conditions: in DMF, 313.15 K

| smiles_string | solubility (mole fraction) |
| --- | --- |
| C#C[C@]1(O)CC[C@H]2[C@@H]3CCC4=CC(=O)CC[C@@H]4[C@H]3C(=C)C[C@@]21CC | 0.112 |

====

details: in water, 298.15 K
value_kind: solubility (mole fraction)

| smiles_string | endpoint_result |
| --- | --- |
| C#C[C@]1(O)CC[C@H]2[C@@H]3CCC4=CC(=O)CC[C@@H]4[C@H]3C(=C)C[C@@]21CC | 3.11e-05 |
